Listed compounds paired with reported pIC50
- assayedTarget: SARS-CoV-2 PLpro (Severe acute respiratory syndrome coronavirus 2)
- assayMethodText: FRET-based PLpro enzymatic assay
- Type: biochemical
pIC50: −log10 of the molar value.

The measured pIC50 that `Cc1ccc(N2CC3CCC(C2)N3C)cc1C(=O)N[C@H](C)c1cc(-c2ccn(C)n2)nc2ccccc12` showed for SARS-CoV-2 PLpro (Severe acute respiratory syndrome coronavirus 2) is > 6.30

The measured pIC50 that `CCn1ccc(-c2cc([C@@H](C)NC(=O)c3cc(N4CC5CCC(C4)N5C)ccc3C)c3ccccc3n2)n1` showed for SARS-CoV-2 PLpro (Severe acute respiratory syndrome coronavirus 2) is > 6.30

The measured pIC50 that `Cc1ccc(N2CC3CCC(C2)N3C)cc1C(=O)NC1(c2cc(-c3cnn(C)c3)nc3ccccc23)CC1` showed for SARS-CoV-2 PLpro (Severe acute respiratory syndrome coronavirus 2) is > 6.30

====

- assayMethodText: Cytotoxicity assay in Vero E6 cells (neutral red uptake)
- Assay type: cell-based
- recordedConditions: African green monkey; Vero E6 cells, 2 days at 37° C., neutral red uptake; read-out: Vero CC50
readoutType: CC50 at 2 days (µM)
All answers are understood in µM, so give the number only.

Some entries whose results are on file:
> print(dat)
                                   molecule  units  endpointresult
1  Cc1ccc(OC[C@@H]2C[C@@H](F)CN2C)cc1C(=O)N[C@H](C)c1cc(-c2cnn(C)c2)nc2ccccc12 [Example 85]     µM            33.9
2  CSc1ccc(-c2cc([C@@H](C)NC(=O)c3cc(OCCN(C)C)ccc3C)c3ccccc3n2)cc1 [Example 70]     µM             8.5
3  Cc1ccc(OCCN(C)C)cc1C(=O)N[C@H](C)c1cc(-c2ccnn2C)nc2ccccc12 [Example 13]     µM              60
4  Cc1ccc(NC2(C)CN(C)C2)cc1C(=O)N[C@H](C)c1cc(-c2cnn(C)c2)nc2ccccc12 [Example 94]     µM             154

Please fill in: CC50 at 2 days reported for Cc1ccc(OCCN(C)C)cc1C(=O)N[C@H](C)c1cc(-c2ccc(CN)s2)nc2ccccc12 [Example 55] = 34.6

====

- assayedTarget: UniProtKB P0DTD1
- assayMethodText: FRET-based PLpro enzymatic assay
- Assay type: biochemical
- recordedConditions: 200 nM PLpro, 10 μM FRET substrate, 30 min preincubation at 30° C.; read-out: IC50
Listed molecules paired with reported IC50

Some entries whose results are on file:
> print(dat)
                                   molecule  endpointresult
1  CSc1ccc(-c2cc([C@@H](C)NC(=O)c3cc(OCCN(C)C)ccc3C)c3ccccc3n2)cc1 [Example 70]        < 500 nM
2  COCCn1cc(-c2cc([C@@H](C)NC(=O)c3cc(OCCN(C)C)ccc3C)c3ccccc3n2)cn1 [Example 6]        < 500 nM
3  CCn1ccc(-c2cc([C@@H](C)NC(=O)c3cc(N4CCN(C)[C@H](C)C4)ccc3C)c3ccccc3n2)n1 [Example 104]        < 500 nM
4  Cc1ccc(OCCN(C)C)cc1C(=O)N[C@H](C)c1cc(-c2cnn(C(F)(F)F)c2)nc2ccccc12 [Example 63]        < 500 nM
5  Cc1ccc(OCCN(C)C)cc1C(=O)N[C@H](C)c1cc(-c2cncs2)nc2ccccc12 [Example 5]        < 500 nM

Please fill in: IC50 reported for Cc1ccc(OCCN(C)C)cc1C(=O)N[C@H](C)c1cc(-c2cnc3[nH]ccc3c2)nc2ccccc12 [Example 60] = > 5000 nM

Please fill in: IC50 reported for Cc1ccc(N2C[C@H]3CN(C)C[C@H]3C2)cc1C(=O)N[C@H](C)c1cc(-c2cnn(C)c2)nc2ccccc12 [Example 81] = < 500 nM
